- experimentalSystem: Atypical chemokine receptor 3 (Homo sapiens, UniProt P25106)
- Sequence (P25106 whole entry): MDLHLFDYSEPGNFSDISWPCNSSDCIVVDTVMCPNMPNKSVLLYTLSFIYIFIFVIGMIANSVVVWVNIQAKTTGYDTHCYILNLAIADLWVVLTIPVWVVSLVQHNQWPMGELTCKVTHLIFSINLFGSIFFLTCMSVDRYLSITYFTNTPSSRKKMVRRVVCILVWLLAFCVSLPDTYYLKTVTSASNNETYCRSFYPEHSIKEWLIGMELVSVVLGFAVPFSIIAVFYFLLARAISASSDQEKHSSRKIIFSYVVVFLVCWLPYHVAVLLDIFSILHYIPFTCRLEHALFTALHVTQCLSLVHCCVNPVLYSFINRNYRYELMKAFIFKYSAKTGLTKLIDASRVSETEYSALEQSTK
- protocolDescription: Displacement of [125I]SDF-1alpha from ACKR3 (unknown origin) expressed in CHO cells after 1 hr by scintillation counting method
Listed here: items and their measured log10 IC50.
Values reflect log10 of reported IC50 (nM).

The cases that follow already have their log10 IC50 on record.
CN1C(=O)[C@H](CCCNC(=N)N)NC(=O)[C@@H](Cc2ccc(O)cc2)NC(=O)[C@@H]2Cc3ccccc3N2C(=O)[C@H](Cc2ccc3ccccc3c2)NC(=O)[C@@H]1CCCNC(N)=O ... 2.28
CN1C(=O)[C@H](CCCNC(=N)N)NC(=O)[C@@H](Cc2cccc(F)c2)NC(=O)[C@@H]2CCCN2C(=O)[C@H](Cc2ccc3ccccc3c2)NC(=O)[C@@H]1CCCNC(N)=O ... 3.11
CN1C(=O)[C@H](CCCNC(=N)N)NC(=O)[C@@H](CCc2ccccc2)NC(=O)[C@@H]2CCCN2C(=O)[C@H](Cc2ccc3ccccc3c2)NC(=O)[C@@H]1CCCNC(N)=O ... 3.70

Value of measured log10 IC50 for the entry CN1C(=O)[C@H](CCCCNC(=N)N)NC(=O)[C@@H](Cc2ccccc2F)NC(=O)[C@H](Cc2cccc3ccccc23)N(C)C(=O)[C@H](Cc2ccc3ccccc3c2)NC(=O)[C@@H]1CCCCNC(=N)N : 2.65

Quick note, log10 IC50 for CN1C(=O)[C@H](CCCNC(=N)N)NC(=O)[C@@H](Cc2ccc(O)cc2)NC(=O)[C@H](Cc2ccc3ccccc3c2)N(C)C(=O)[C@H](Cc2ccc3ccccc3c2)NC(=O)[C@@H]1CCCNC(N)=O landed at 3.41

Record CN1C(=O)[C@H](CCCNC(=N)N)NC(=O)[C@@H](Cc2ccc(O)cc2)NC(=O)[C@H](Cc2csc3ccccc23)N(C)C(=O)[C@H](Cc2ccc3ccccc3c2)NC(=O)[C@@H]1CCCNC(N)=O , field log10 IC50: 3.00

The recorded log10 IC50 for entry CN1C(=O)[C@H](CCCNC(=N)N)NC(=O)[C@@H](Cc2ccc(O)cc2)NC(=O)[C@H](Cc2ccc(O)cc2)N(C)C(=O)[C@H](Cc2ccc3ccccc3c2)NC(=O)[C@@H]1CCCNC(N)=O equals 3.26

// log10 IC50 lookup, compound = CN1C(=O)[C@@H](CS)NC(=O)[C@@H](Cc2ccc(O)cc2)NC(=O)[C@@H]2CCCN2C(=O)[C@H](Cc2ccc3ccccc3c2)NC(=O)[C@@H]1CCCNC(=N)N , result: 2.40

# log10 IC50 of CN1C(=O)[C@H](CCCNC(=N)N)NC(=O)[C@@H](Cc2ccc(C(=O)c3ccccc3)cc2)NC(=O)[C@@H]2CCCN2C(=O)[C@H](Cc2ccc3ccccc3c2)NC(=O)[C@@H]1CCCNC(N)=O = 2.86

// log10 IC50 lookup, compound = CN1C(=O)[C@H](CCCNC(=N)N)NC(=O)[C@@H](Cc2ccc(Cl)cc2)NC(=O)[C@@H]2CCCN2C(=O)[C@H](Cc2ccc3ccccc3c2)NC(=O)[C@@H]1CCCNC(N)=O , result: 2.90

The recorded log10 IC50 for CN1C(=O)[C@H](CCCN)NC(=O)[C@@H](Cc2ccc(O)cc2)NC(=O)[C@@H]2CCCN2C(=O)[C@H](Cc2ccc3ccccc3c2)NC(=O)[C@@H]1CCCNC(=N)N is 3.41

The compound listed as CN1C(=O)[C@H](CCCNC(=N)N)NC(=O)[C@@H](Cc2ccccc2)NC(=O)[C@@H]2CCCN2C(=O)[C@H](Cc2ccc3ccccc3c2)NC(=O)[C@@H]1CCCNC(N)=O has a reported log10 IC50 of 3.04

Looking up CC(C)[C@H]1C(=O)N[C@H](Cc2ccc(O)cc2)C(=O)N[C@@H](CCCNC(=N)N)C(=O)N(C)[C@@H](CCCNC(N)=O)C(=O)N[C@@H](Cc2ccc3ccccc3c2)C(=O)N1C , I see its log10 IC50 listed as 3.69

Field log10 IC50 (entry CN1C(=O)[C@H](CCNC(=N)N)NC(=O)[C@@H](Cc2ccc(O)cc2)NC(=O)[C@@H]2CCCN2C(=O)[C@H](Cc2ccc3ccccc3c2)NC(=O)[C@@H]1CCCNC(=N)N ) reads 3.41

What the record says about CSCC[C@H]1C(=O)N[C@H](Cc2ccc(O)cc2)C(=O)N[C@@H](CCCNC(=N)N)C(=O)N(C)[C@@H](CCCNC(N)=O)C(=O)N[C@@H](Cc2ccc3ccccc3c2)C(=O)N1C : log10 IC50 is 3.26

// field: log10 IC50; key: CN1C(=O)[C@H](CCCNC(=N)N)NC(=O)[C@@H](Cc2ccc([N+](=O)[O-])cc2)NC(=O)[C@@H]2CCCN2C(=O)[C@H](Cc2ccc3ccccc3c2)NC(=O)[C@@H]1CCCNC(N)=O ; value = 3.30
